- procedure summary: Toxicity to normal cells (SRB)
- Type: cell-based, human
- assay setup: human, Hs27 fibroblasts (normal cell line)
Structures can show the parent of a compound that is named as a salt.
metric name: GI50 at 72 h

Quick one: GI50 at 72 h of CN[C@@H](C)C(=O)N[C@H](C(=O)N1CCC[C@H]1C(=O)Nc1cc2c(Nc3ccc4c(c3)CC(=O)N4)ncnc2cc1OC)C(C)(C)C [Example 94, hydrochloride] ? > 10 µM

Quick one: GI50 at 72 h of CN[C@@H](C)C(=O)N[C@H](C(=O)N1CCC[C@H]1C(=O)Nc1cc2c(Nc3ccc(Br)c(Cl)c3F)ncnc2cc1OC)C(C)(C)C [Example 87, hydrochloride] ? > 10 µM

Quick one: GI50 at 72 h of CN[C@@H](C)C(=O)N[C@H](C(=O)N1CCC[C@H]1C(=O)Nc1cc2c(N[C@@H](C)c3ccccc3)ncnc2cc1OC)C(C)(C)C [Example 34, hydrochloride] ? > 10 µM

Quick one: GI50 at 72 h of CN[C@@H](C)C(=O)N[C@H](C(=O)N1CCC[C@H]1C(=O)Nc1cc2c(Nc3ccc(N4CCCC4)cc3)ncnc2cc1OC)C(C)(C)C [Example 65, dihydrochloride] ? > 10 µM

Please find the next compound below.
Quick one: GI50 at 72 h of CN[C@@H](C)C(=O)N[C@H](C(=O)N1CCC[C@H]1C(=O)Nc1cc2c(Nc3ccc(F)c(Cl)c3)ncnc2cc1OC)C(C)(C)C [Example 41, hydrochloride] ? > 10 µM

----------
- procedure summary: Toxicity to normal cells (SRB)
- Format: cell-based, mouse
- assay setup: mouse, Balb/c3t3 fibroblasts (normal cell line), read-out: BalB/C (GI50)
Where a name gives a salt, the structure may show the parent alone.
metric name: GI50 at 72 h

Here are 2 molecules together with their reported answers.
Quick one: GI50 at 72 h of CN[C@@H](C)C(=O)N[C@H](C(=O)N1CCC[C@H]1C(=O)Nc1cc2c(Nc3ccc(F)c(Cl)c3F)ncnc2cc1O[C@@H]1CCOC1)C(C)(C)C [Example 16, hydrochloride] ? > 10 µM

Quick one: GI50 at 72 h of CN[C@@H](C)C(=O)N[C@H](C(=O)N1CCC[C@H]1C(=O)Nc1cc2c(Nc3ccc4ncccc4c3)ncnc2cc1OC)C(C)(C)C ? > 10 µM

Please find the next molecule below.
Quick one: GI50 at 72 h of CN[C@@H](C)C(=O)N[C@H](C(=O)N1CCC[C@H]1C(=O)Nc1cc2c(Nc3ccc(OC)cc3)ncnc2cc1OC)C(C)(C)C [Example 49, hydrochloride] ? > 10 µM

----------
- System: MDA-MB-231 breast cancer cell lines
- procedure summary: Evaluation of inhibition on cell growth (MTS)
- Format: cell-based
- assay setup: Homo sapiens, MDA-MB-231, 120 hours
Counter-ions that a name gives are not always drawn.
metric name: GI50

Quick one: GI50 of CN[C@@H](C)C(=O)N[C@H](C(=O)N1CCC[C@H]1C(=O)Nc1cc2c(Nc3ccc(C4CCN(C)CC4)cc3)ncnc2cc1OC)C(C)(C)C [Example 106, hydrochloride] ? ≤ 100 nM

---
Quick one: GI50 of CN[C@@H](C)C(=O)N[C@H](C(=O)N1CCC[C@H]1C(=O)Nc1cc2c(NCCc3ccccc3)ncnc2cc1OC)C(C)(C)C [Example 83, hydrochloride] ? 100 to 1000 nM

Quick one: GI50 of CN[C@@H](C)C(=O)N[C@H](C(=O)N1C[C@H](OCc2ccccc2)C[C@H]1C(=O)Nc1cc2c(Nc3ccc(F)c(Cl)c3F)ncnc2cc1OC)C(C)(C)C [Example 46, hydrochloride] ? ≤ 100 nM

Values compiled from patent US8835458B2.
